molecular target: D(2) dopamine receptor (Homo sapiens) (UniProt P14416); assay: Dopamine D2 receptor (DRD2) small molecule antagonists, cell-based qHTS assay (AID 1963595); settings: HEK293-DRD2 cAMP HTRF antagonist mode; series mostly up to 92.4 µM
Sequence (P14416 whole entry, looked up): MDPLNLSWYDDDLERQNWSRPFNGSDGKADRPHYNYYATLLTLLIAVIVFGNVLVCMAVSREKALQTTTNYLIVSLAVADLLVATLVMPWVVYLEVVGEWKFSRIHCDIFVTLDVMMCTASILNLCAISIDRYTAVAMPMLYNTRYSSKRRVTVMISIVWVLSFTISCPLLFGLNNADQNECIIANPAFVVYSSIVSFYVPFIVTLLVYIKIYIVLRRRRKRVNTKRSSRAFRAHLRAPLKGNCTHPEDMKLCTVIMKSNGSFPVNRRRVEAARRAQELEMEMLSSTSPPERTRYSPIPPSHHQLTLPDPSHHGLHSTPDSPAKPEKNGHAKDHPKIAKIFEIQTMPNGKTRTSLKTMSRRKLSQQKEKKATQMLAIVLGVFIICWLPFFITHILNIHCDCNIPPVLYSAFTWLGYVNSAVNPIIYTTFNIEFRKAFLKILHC
Records with an inconclusive call do not appear. Activity calls are given as the source filed them. Calls come from the whole dose curve; as a rule, active = well fitted inhibition curve with a large enough effect in the signal ratio in the repeat runs, with a control signal flat; inconclusive = weak or mixed curves, or effect the other way; inactive = flat fitted curve, though single readings scatter; the % refers to the signal ratio.
Log the outcome using a class from true (active), false (inactive)

Here's what some known entries look like.
CCO[C@H]1O[C@@H]2OC3(C)CC[C@H]4[C@H](C)CC[C@@H]([C@H]1C)[C@@]24OO3: false
O=NN1CCNCC1: false
O=c1[nH]c(Cl)c(Cl)cc1Cl: false
Clc1ccccc1N1CCNCC1: false

Please share the test call associated with CC(C)CC#N .
false

Tell me the recorded outcome of this test for CC1=C(C(=O)Nc2ccccc2)S(=O)(=O)CCO1 .
false

Recorded test outcome, item O=S1(=O)OCCO1
false

Could you please tell me the result logged for CSSC in this assay?
false

Called result for CC(C)(C)c1ccc(OP(=O)(Oc2ccccc2)Oc2ccccc2)cc1
false

Per the assay record, what outcome was assigned to O=C(c1ccccc1)C(Cl)Cl ?
false

Please indicate how the test categorized CCCCCCCCCC(=O)O[C@H]1CC[C@H]2[C@@H]3CCC4=CC(=O)CC[C@@H]4[C@H]3CC[C@]12C .
false

====

molecular target: D(2) dopamine receptor (Homo sapiens) (UniProt P14416); experiment: Dopamine D2 receptor (DRD2) small molecule antagonists, cell-based qHTS assay (AID 1963595); settings: HEK293-DRD2 cAMP HTRF antagonist mode; series mostly up to 92.4 µM
Records with an inconclusive call do not appear. Active and inactive are the calls of the source. Calls follow the shape of the dose curve; as a rule, active = well fitted inhibition curve with a large enough effect in the signal ratio in the repeat runs, with a control signal flat; inconclusive = weak or mixed curves, or effect the other way; inactive = flat fitted curve, though single readings scatter; the % refers to the signal ratio.
Reply using exactly one outcome from yes (1) = active, no (0) = inactive

Consider the following illustrative entries.
CCOC(=O)CC(=O)CCl: no (0)
CCCCS(=O)(=O)Cl: no (0)
CCOP(=S)(OCC)SC(CCl)N1C(=O)c2ccccc2C1=O (stereo not drawn): no (0)
Clc1ccc(-c2ccc(Cl)c(Cl)c2Cl)c(Cl)c1Cl: no (0)

Tell me the recorded outcome of this test for CCOC(=O)C(SP(=S)(OC)OC)c1ccccc1 (stereo not drawn) .
no (0)

Hi, do you know how O=C(Nc1ccc(F)cc1F)c1cccnc1Oc1cccc(C(F)(F)F)c1 came out in this test?
no (0)

Can you look up the reported call for COC(=O)C(C)Oc1ccc(Oc2ccc(Cl)cc2Cl)cc1 (stereo not drawn) for me?
no (0)

Write down the call the test reported for this compound. Item: CCC1(CC)C(=O)N=C(O)NC1=O
no (0)

Each compound tested received a call. Report the one for C[C@H]1[C@H](c2ccc(Cl)cc2)SC(=O)N1C(=O)NC1CCCCC1 .
no (0)

Given c1ccc2c(c1)cc1ccc3cccc4ccc2c1c34 , state the outcome it received in this test.
no (0)

// param item: CC(CC(C(N)=O)(c1ccccc1)c1ccccc1)N(C)C (stereo not drawn) ; yields the recorded call
no (0)

Per the records of this test, what outcome belongs to CCOP(=O)(N=C1SCCS1)OCC ?
no (0)

What call does the record list for CC(CC(C#N)(c1ccccc1)c1ccccc1)N(C)C (stereo not drawn) ?
no (0)

Call for entry Oc1cccc(-c2ccccc2)c1 :
no (0)

Recorded test call requested for C[C@]12CC[C@H]3[C@@H](CCC4=CC(=O)CC[C@@]43C)[C@@H]1CC[C@@H]2C(=O)O
no (0)

Assay result, entry CCCCCCCCCCCCCC[P+](CCCCCC)(CCCCCC)CCCCCC (tested in a mixture with another compound) — outcome?
yes (1)

Test call, this compound: CCC(OC(C)=O)C(CC(C)NC)(c1ccccc1)c1ccccc1 (stereo not drawn)
no (0)

Short answer needed: outcome of this test for Cc1cccc(OP(=O)(Oc2cccc(C)c2)Oc2cccc(C)c2)c1 ?
no (0)

FYI, the data here is from PubChem BioAssay (Tox21).
